Known remaining activity at 10 µM of a selection of compounds
# SYSTEM_NAME: MST1 (Homo sapiens, UniProt Q13043)
# Construct: purchased Eurofins Pharma Discovery Services (KinaseProfiler; Cerep BioPrint panel)
# Sequence (Q13043 whole entry): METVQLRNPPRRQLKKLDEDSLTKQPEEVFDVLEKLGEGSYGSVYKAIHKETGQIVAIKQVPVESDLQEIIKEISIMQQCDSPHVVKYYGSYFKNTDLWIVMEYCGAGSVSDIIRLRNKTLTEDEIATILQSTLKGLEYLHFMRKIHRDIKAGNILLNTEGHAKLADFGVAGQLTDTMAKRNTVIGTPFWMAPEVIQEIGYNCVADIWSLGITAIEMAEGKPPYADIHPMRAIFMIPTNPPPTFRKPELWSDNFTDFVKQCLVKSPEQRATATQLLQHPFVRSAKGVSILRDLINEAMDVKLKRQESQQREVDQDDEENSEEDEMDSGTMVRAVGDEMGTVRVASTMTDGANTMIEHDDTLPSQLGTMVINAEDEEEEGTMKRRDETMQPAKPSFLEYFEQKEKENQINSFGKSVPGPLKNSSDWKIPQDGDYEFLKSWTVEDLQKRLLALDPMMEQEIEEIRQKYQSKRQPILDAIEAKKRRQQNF
# ASSAY_EXPLANATION: kinase selectivity panel
# Assay type: biochemical
# PROTOCOL_CONDITIONS: read-out: percentage of control activity (POC), MST1
The answer is to be given in %; state only the numeric part.

Below are worked cases with known answers.
COMPOUND	UNIT_ABBREV	NUMBER
CC(C)(C)N1CCC(c2cc(-c3ccc(F)cc3Cl)c3cc[n+]([O-])c(-c4c(Cl)cccc4Cl)c3n2)CC1	%	103
Cc1ccc(C(=O)NCC2CC2)cc1-c1ccc2c(c1)NC(=O)C21CCCC1	%	88
CS(=O)(=O)N1CCN(c2ccc(Nc3ncc(C(N)=O)c(NC4CC4)n3)cc2)CC1	%	-1
COc1c(NC(=O)c2ccc(C)c(-c3nnc4c(NCC(C)(C)C)nccn34)c2)cc(C(C)(C)C)cc1NS(C)(=O)=O [compound 7, reference compound]	%	101

Then this compound:
Kindly indicate its recorded remaining activity at 10 µM. Item: Cn1cc(-c2cccc(-c3nc(C(=O)NC4C5CC6CC4CC(O)(C6)C5)c(N)nc3N)c2)cn1 (centres unmarked)
58

* * *

Known remaining activity at 10 µM of a selection of compounds
# SYSTEM_NAME: TrkB (Homo sapiens)
# Construct: purchased Eurofins Pharma Discovery Services (KinaseProfiler; Cerep BioPrint panel)
# Sequence (Q16620 32-822): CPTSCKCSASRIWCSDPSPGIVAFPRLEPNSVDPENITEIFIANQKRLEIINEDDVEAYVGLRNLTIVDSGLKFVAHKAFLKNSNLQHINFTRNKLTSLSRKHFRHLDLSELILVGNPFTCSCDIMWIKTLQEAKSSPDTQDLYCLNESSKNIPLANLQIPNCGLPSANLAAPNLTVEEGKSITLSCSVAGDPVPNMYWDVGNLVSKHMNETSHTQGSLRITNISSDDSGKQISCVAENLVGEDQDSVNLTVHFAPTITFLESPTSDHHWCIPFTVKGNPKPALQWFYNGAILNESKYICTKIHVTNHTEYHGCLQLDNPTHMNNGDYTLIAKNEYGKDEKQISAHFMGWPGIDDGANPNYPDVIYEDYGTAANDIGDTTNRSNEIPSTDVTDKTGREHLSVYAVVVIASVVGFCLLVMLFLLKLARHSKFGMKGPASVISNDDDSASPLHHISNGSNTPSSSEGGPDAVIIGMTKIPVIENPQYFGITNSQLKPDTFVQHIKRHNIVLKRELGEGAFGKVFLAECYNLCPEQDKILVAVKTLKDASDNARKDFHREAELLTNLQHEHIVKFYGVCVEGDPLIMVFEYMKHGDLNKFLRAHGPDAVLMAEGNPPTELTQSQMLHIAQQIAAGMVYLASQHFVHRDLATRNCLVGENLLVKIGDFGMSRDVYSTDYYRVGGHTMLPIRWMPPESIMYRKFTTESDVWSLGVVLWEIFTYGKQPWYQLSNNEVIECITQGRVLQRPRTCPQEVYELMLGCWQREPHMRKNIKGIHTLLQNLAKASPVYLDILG
# ASSAY_EXPLANATION: kinase selectivity panel
# Type: biochemical
# PROTOCOL_CONDITIONS: read-out: percentage of control activity (POC), TrkB

COMPOUND	RESULT
CC(C)(C)N1CCC(c2cc(-c3ccc(F)cc3Cl)c3cc[n+]([O-])c(-c4c(Cl)cccc4Cl)c3n2)CC1	25%

# lookup: TrkB (Homo sapiens) remaining activity at 10 µM, key = Cn1cc(-c2cccc(-c3nc(C(=O)NC4C5CC6CC4CC(O)(C6)C5)c(N)nc3N)c2)cn1 (centres unmarked)
57%

# lookup: TrkB (Homo sapiens) remaining activity at 10 µM, key = CS(=O)(=O)N1CCN(c2ccc(Nc3ncc(C(N)=O)c(NC4CC4)n3)cc2)CC1
3%

# lookup: TrkB (Homo sapiens) remaining activity at 10 µM, key = Cc1ccc(C(=O)NCC2CC2)cc1-c1ccc2c(c1)NC(=O)C21CCCC1
96%

# lookup: TrkB (Homo sapiens) remaining activity at 10 µM, key = COc1c(NC(=O)c2ccc(C)c(-c3nnc4c(NCC(C)(C)C)nccn34)c2)cc(C(C)(C)C)cc1NS(C)(=O)=O [compound 7, reference compound]
84%

* * *

# SYSTEM_NAME: Tie2 (Homo sapiens, UniProt Q02763)
# Construct: purchased Eurofins Pharma Discovery Services (KinaseProfiler; Cerep BioPrint panel)
# Sequence (Q02763 23-1124): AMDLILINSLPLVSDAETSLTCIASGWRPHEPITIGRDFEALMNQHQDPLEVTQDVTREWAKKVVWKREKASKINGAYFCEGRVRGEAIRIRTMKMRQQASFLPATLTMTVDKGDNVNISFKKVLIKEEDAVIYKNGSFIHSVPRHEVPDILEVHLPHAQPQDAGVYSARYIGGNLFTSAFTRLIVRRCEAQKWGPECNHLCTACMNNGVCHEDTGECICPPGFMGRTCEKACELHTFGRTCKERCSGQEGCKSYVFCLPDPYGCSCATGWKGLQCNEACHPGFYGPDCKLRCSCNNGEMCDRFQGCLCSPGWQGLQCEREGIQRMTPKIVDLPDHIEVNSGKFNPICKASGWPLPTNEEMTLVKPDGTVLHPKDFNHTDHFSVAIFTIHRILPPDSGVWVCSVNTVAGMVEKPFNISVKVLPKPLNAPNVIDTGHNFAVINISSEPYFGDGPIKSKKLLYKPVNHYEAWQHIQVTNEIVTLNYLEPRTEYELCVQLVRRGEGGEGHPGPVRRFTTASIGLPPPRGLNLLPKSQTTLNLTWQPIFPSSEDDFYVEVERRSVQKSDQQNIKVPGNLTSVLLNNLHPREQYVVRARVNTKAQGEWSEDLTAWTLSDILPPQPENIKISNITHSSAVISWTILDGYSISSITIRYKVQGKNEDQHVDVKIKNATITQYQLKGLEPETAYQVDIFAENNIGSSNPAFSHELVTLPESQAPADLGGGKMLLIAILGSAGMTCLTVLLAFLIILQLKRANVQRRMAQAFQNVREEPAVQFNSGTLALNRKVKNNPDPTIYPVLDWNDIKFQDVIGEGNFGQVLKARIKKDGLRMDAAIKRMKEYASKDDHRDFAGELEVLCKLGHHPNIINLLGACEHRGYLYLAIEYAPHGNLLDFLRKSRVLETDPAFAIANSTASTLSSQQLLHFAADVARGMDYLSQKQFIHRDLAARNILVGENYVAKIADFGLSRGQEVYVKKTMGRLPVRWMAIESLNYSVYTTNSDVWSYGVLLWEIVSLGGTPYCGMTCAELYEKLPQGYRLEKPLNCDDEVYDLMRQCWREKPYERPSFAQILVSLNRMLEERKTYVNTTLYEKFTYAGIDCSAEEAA
# ASSAY_EXPLANATION: kinase selectivity panel
# Format: biochemical
# PROTOCOL_CONDITIONS: read-out: percentage of control activity (POC), Tie2
remaining activity at 10 µM vs 80%: less than gives met; not less than gives not met.

Example results:
COMPOUND	CLASS_NAME
Cn1cc(-c2cccc(-c3nc(C(=O)NC4C5CC6CC4CC(O)(C6)C5)c(N)nc3N)c2)cn1 (centres unmarked)	met
Cc1ccc(C(=O)NCC2CC2)cc1-c1ccc2c(c1)NC(=O)C21CCCC1	not met
CS(=O)(=O)N1CCN(c2ccc(Nc3ncc(C(N)=O)c(NC4CC4)n3)cc2)CC1	met

Could you now look at the following compound, please?
Regarding COc1c(NC(=O)c2ccc(C)c(-c3nnc4c(NCC(C)(C)C)nccn34)c2)cc(C(C)(C)C)cc1NS(C)(=O)=O [compound 7, reference compound] , kindly confirm whether its remaining activity at 10 µM is beneath 80%.
met

* * *

# SYSTEM_NAME: Met (Homo sapiens, UniProt P08581)
# Construct: purchased Eurofins Pharma Discovery Services (KinaseProfiler; Cerep BioPrint panel)
# Sequence (P08581 25-1390): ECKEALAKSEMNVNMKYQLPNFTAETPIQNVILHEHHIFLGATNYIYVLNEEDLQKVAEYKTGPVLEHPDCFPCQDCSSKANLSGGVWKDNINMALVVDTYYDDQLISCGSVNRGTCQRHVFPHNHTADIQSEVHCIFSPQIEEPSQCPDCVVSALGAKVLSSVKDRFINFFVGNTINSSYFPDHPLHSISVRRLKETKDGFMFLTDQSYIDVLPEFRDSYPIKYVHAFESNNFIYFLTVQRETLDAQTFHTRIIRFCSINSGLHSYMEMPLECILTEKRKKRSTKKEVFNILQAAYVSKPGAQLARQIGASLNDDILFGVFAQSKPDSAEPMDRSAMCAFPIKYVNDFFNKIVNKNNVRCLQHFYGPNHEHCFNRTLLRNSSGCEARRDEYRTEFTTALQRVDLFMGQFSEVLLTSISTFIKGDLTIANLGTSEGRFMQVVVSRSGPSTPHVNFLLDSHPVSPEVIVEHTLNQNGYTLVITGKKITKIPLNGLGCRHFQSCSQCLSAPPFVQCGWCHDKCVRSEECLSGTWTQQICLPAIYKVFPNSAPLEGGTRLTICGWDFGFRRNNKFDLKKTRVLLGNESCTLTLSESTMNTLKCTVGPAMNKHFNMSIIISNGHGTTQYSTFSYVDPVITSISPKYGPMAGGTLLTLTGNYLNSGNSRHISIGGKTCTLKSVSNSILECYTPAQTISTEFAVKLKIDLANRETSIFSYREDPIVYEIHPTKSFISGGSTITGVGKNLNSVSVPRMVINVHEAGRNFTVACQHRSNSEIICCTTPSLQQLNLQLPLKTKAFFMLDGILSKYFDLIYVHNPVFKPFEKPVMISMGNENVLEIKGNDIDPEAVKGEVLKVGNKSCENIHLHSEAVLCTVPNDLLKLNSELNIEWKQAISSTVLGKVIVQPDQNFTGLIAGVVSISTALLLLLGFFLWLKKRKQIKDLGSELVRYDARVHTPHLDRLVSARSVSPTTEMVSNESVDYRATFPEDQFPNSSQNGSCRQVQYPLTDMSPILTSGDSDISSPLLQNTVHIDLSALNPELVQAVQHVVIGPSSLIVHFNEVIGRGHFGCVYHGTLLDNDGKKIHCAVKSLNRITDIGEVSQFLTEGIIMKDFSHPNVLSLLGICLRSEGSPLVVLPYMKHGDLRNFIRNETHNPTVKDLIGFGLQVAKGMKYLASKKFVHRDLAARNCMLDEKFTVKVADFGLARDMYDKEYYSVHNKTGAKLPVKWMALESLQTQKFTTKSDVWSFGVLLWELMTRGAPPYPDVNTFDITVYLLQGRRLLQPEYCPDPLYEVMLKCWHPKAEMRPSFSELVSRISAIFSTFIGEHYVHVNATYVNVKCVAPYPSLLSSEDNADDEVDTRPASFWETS
# ASSAY_EXPLANATION: kinase selectivity panel
# Assay type: biochemical
# PROTOCOL_CONDITIONS: read-out: percentage of control activity (POC), Met
remaining activity at 10 µM vs 90%: less than gives TRUE; not less than gives FALSE.

Example results:
COMPOUND	CLASS_NAME
CS(=O)(=O)N1CCN(c2ccc(Nc3ncc(C(N)=O)c(NC4CC4)n3)cc2)CC1 [compound 5]	TRUE
Cn1cc(-c2cccc(-c3nc(C(=O)NC4C5CC6CC4CC(O)(C6)C5)c(N)nc3N)c2)cn1 (centres unmarked) [compound 4]	TRUE
Cc1ccc(C(=O)NCC2CC2)cc1-c1ccc2c(c1)NC(=O)C21CCCC1 [compound 3]	TRUE

Regarding CC(C)(C)N1CCC(c2cc(-c3ccc(F)cc3Cl)c3cc[n+]([O-])c(-c4c(Cl)cccc4Cl)c3n2)CC1 [compound 2] , kindly confirm whether its remaining activity at 10 µM is beneath 90%.
TRUE

Regarding COc1c(NC(=O)c2ccc(C)c(-c3nnc4c(NCC(C)(C)C)nccn34)c2)cc(C(C)(C)C)cc1NS(C)(=O)=O [compound 7, reference compound] , kindly confirm whether its remaining activity at 10 µM is beneath 90%.
FALSE

* * *

# SYSTEM_NAME: MKK7β (Homo sapiens, UniProt O14733)
# Construct: purchased Eurofins Pharma Discovery Services (KinaseProfiler; Cerep BioPrint panel)
# Sequence (O14733 whole entry): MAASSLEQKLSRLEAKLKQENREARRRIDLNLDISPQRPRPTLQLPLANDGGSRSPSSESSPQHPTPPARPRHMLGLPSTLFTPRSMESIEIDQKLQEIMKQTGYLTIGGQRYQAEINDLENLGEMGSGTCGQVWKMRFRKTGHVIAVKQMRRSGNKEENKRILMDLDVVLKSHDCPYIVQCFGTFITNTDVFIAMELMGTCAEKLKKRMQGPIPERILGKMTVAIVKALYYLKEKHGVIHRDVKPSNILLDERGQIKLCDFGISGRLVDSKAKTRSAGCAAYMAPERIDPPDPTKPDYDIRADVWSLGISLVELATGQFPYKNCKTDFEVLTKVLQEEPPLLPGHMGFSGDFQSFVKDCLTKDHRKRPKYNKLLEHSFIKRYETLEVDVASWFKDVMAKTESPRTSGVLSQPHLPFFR
# ASSAY_EXPLANATION: kinase selectivity panel
# Type: biochemical
# PROTOCOL_CONDITIONS: read-out: percentage of control activity (POC), MKK7β
Known remaining activity at 10 µM of a selection of compounds
Give me the value, and tack the unit on after it.

Below are worked cases with known answers.
COMPOUND	remaining activity at 10 µM
Cn1cc(-c2cccc(-c3nc(C(=O)NC4C5CC6CC4CC(O)(C6)C5)c(N)nc3N)c2)cn1 (centres unmarked) [compound 4]	101%
CC(C)(C)N1CCC(c2cc(-c3ccc(F)cc3Cl)c3cc[n+]([O-])c(-c4c(Cl)cccc4Cl)c3n2)CC1 [compound 2]	110%
COc1c(NC(=O)c2ccc(C)c(-c3nnc4c(NCC(C)(C)C)nccn34)c2)cc(C(C)(C)C)cc1NS(C)(=O)=O [compound 7, reference compound]	112%
Cc1ccc(C(=O)NCC2CC2)cc1-c1ccc2c(c1)NC(=O)C21CCCC1 [compound 3]	116%

Then this compound:
Kindly indicate its recorded remaining activity at 10 µM. Item: CS(=O)(=O)N1CCN(c2ccc(Nc3ncc(C(N)=O)c(NC4CC4)n3)cc2)CC1 [compound 5]
7%

* * *

# SYSTEM_NAME: Aurora-A (Homo sapiens, UniProt O14965)
# Construct: purchased Eurofins Pharma Discovery Services (KinaseProfiler; Cerep BioPrint panel)
# Sequence (O14965 whole entry): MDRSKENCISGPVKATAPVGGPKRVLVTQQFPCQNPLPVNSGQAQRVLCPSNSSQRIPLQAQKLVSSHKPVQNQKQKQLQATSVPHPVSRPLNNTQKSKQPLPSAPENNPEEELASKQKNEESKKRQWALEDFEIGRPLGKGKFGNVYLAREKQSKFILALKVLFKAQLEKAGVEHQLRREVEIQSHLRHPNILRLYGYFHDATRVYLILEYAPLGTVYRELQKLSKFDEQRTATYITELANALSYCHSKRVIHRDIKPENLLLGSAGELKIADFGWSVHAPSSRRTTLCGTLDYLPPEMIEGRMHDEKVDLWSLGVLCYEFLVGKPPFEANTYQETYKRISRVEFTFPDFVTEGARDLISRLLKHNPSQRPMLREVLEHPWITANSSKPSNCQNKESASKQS
# ASSAY_EXPLANATION: kinase selectivity panel
# Assay type: biochemical
# PROTOCOL_CONDITIONS: read-out: percentage of control activity (POC), Aurora-A
Known remaining activity at 10 µM of a selection of compounds

COMPOUND	SYSTEM_NAME	remaining activity at 10 µM
Cc1ccc(C(=O)NCC2CC2)cc1-c1ccc2c(c1)NC(=O)C21CCCC1	Aurora-A (Homo sapiens, UniProt O14965)	96%

Then this compound:
# lookup: Aurora-A (Homo sapiens, UniProt O14965) remaining activity at 10 µM, key = COc1c(NC(=O)c2ccc(C)c(-c3nnc4c(NCC(C)(C)C)nccn34)c2)cc(C(C)(C)C)cc1NS(C)(=O)=O [compound 7, reference compound]
110%

* * *

# SYSTEM_NAME: SGK (Homo sapiens, UniProt O00141)
# Construct: purchased Eurofins Pharma Discovery Services (KinaseProfiler; Cerep BioPrint panel)
# Sequence (O00141 whole entry): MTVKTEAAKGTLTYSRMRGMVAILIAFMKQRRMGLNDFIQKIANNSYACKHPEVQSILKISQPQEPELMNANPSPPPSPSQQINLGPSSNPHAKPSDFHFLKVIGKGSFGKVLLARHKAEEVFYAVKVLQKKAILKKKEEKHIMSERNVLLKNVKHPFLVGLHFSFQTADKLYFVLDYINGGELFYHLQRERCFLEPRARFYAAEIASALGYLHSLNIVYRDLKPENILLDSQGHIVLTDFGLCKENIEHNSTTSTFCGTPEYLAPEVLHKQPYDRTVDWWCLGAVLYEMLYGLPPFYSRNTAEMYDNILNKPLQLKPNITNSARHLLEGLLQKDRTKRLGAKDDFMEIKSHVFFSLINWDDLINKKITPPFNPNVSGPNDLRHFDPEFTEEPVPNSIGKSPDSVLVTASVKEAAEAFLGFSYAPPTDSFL
# ASSAY_EXPLANATION: kinase selectivity panel
# Format: biochemical
# PROTOCOL_CONDITIONS: read-out: percentage of control activity (POC), SGK
READOUT_LABEL: remaining activity at 10 µM (%)
The answer is to be given in %; state only the numeric part.

Below are worked cases with known answers.
COMPOUND	remaining activity at 10 µM (%)
COc1c(NC(=O)c2ccc(C)c(-c3nnc4c(NCC(C)(C)C)nccn34)c2)cc(C(C)(C)C)cc1NS(C)(=O)=O [compound 7, reference compound]	114
CC(C)(C)N1CCC(c2cc(-c3ccc(F)cc3Cl)c3cc[n+]([O-])c(-c4c(Cl)cccc4Cl)c3n2)CC1	105
Cn1cc(-c2cccc(-c3nc(C(=O)NC4C5CC6CC4CC(O)(C6)C5)c(N)nc3N)c2)cn1 (centres unmarked)	96
Cc1ccc(C(=O)NCC2CC2)cc1-c1ccc2c(c1)NC(=O)C21CCCC1	99

Then this compound:
Kindly indicate its recorded remaining activity at 10 µM. Item: CS(=O)(=O)N1CCN(c2ccc(Nc3ncc(C(N)=O)c(NC4CC4)n3)cc2)CC1
64

* * *

# SYSTEM_NAME: PKCγ (Homo sapiens, UniProt P05129)
# Construct: purchased Eurofins Pharma Discovery Services (KinaseProfiler; Cerep BioPrint panel)
# ASSAY_EXPLANATION: kinase selectivity panel
# Assay type: biochemical
# PROTOCOL_CONDITIONS: read-out: percentage of control activity (POC), PKCγ
Known remaining activity at 10 µM of a selection of compounds
The answer is to be given in %; state only the numeric part.

Below are worked cases with known answers.
COMPOUND	UNIT_ABBREV	remaining activity at 10 µM
CS(=O)(=O)N1CCN(c2ccc(Nc3ncc(C(N)=O)c(NC4CC4)n3)cc2)CC1 [compound 5]	%	4
CC(C)(C)N1CCC(c2cc(-c3ccc(F)cc3Cl)c3cc[n+]([O-])c(-c4c(Cl)cccc4Cl)c3n2)CC1 [compound 2]	%	117
Cn1cc(-c2cccc(-c3nc(C(=O)NC4C5CC6CC4CC(O)(C6)C5)c(N)nc3N)c2)cn1 (centres unmarked) [compound 4]	%	96

Kindly indicate its recorded remaining activity at 10 µM. Item: COc1c(NC(=O)c2ccc(C)c(-c3nnc4c(NCC(C)(C)C)nccn34)c2)cc(C(C)(C)C)cc1NS(C)(=O)=O [compound 7, reference compound]
105

Kindly indicate its recorded remaining activity at 10 µM. Item: Cc1ccc(C(=O)NCC2CC2)cc1-c1ccc2c(c1)NC(=O)C21CCCC1 [compound 3]
104

Measured values drawn from paper PMC5761851 for this set.
